The measured values listed here are drawn from BigSolDB 2.1.

settings: in ethanol, 303.15 K
parameter-measured: solubility (mole fraction)
// no unit string in output, number only

solubility (mole fraction) for CC(=O)N[C@@H](CC(C)C)C(=O)O ?
0.0396

###

conditions: in n-propyl acetate, 288.15 K
parameter-measured: solubility (mole fraction)
// no unit string in output, number only

solubility (mole fraction) for CC(=O)N[C@@H](CC(C)C)C(=O)O ?
0.00107

###

conditions: in acetonitrile, 288.15 K
parameter-measured: solubility (mole fraction)

solubility (mole fraction) for CC(=O)N[C@@H](CC(C)C)C(=O)O ?
0.000811

###

conditions: in n-butanol, 303.15 K
parameter-measured: solubility (mole fraction)
// no unit string in output, number only

solubility (mole fraction) for CC(=O)N[C@@H](CC(C)C)C(=O)O ?
0.0291
